# assayProcedure: Cytotoxicity against human PC3 cells assessed as growth inhibition after 48 hrs by MTT assay
# Format: functional, cell-based
# runConditions: PC-3, 48 h
reportedMetric: pIC50
Remember, pIC50 is on a log scale: it is -log10 of the molar concentration.

[[record]]
smilescode = "COc1ccc(-n2c(SCc3ccccc3)nnc2-c2cc(OC)c(OC)c(OC)c2)cc1"
reportedmetric = "pIC50"
observedmeasurement = 4.47

[[record]]
smilescode = "COc1ccc(/C=C\\c2cc(OC)c(OC)c(OC)c2)cc1O"
reportedmetric = "pIC50"
observedmeasurement = 4.66

[[record]]
smilescode = "COc1cc(-c2nnc(SCC(=O)c3ccccc3)n2-c2ccc(N(C)C)cc2)cc(OC)c1OC"
reportedmetric = "pIC50"
observedmeasurement = 4.41


Field: next molecule
pIC50 for COc1cc(-c2nnc(SCC(=O)C3CC3)n2-c2ccc(N(C)C)cc2)cc(OC)c1OC ?
4.34
